System: Mus musculus
protocol.description: Gastrointestinal toxicity in Kunming mouse assessed as ulcer index at 200 mg/kg, po after 4 hrs
Type: organism-based
Design: dose 200 mg/kg, route oral
conditions: in vivo
measurement.type: UI

The examples below pair each entry with its known result.
Prompt: Name the value of UI reported for COc1ccc2cc(C(C)C(=O)NCCCCC(NC(=O)C(C)c3ccc4cc(OC)ccc4c3)C(=O)NCCCCC(NC(=O)C(CCCCNC(=O)C(C)c3ccc4cc(OC)ccc4c3)NC(=O)C(C)c3ccc4cc(OC)ccc4c3)C(=O)NCCCCC(NC(=O)C(CCCCNC(=O)C(CCCCNC(=O)C(C)c3ccc4cc(OC)ccc4c3)NC(=O)C(C)c3ccc4cc(OC)ccc4c3)NC(=O)C(CCCCNC(=O)C(C)c3ccc4cc(OC)ccc4c3)NC(=O)C(C)c3ccc4cc(OC)ccc4c3)C(=O)OCc3ccccc3)ccc2c1 (centres undefined) when tested on Mus musculus.
Completion: 6.21

Prompt: Please indicate recorded UI of COc1ccc2cc(C(C)C(=O)OCC(COC(=O)C(C)c3ccc4cc(OC)ccc4c3)(COC(=O)C(C)c3ccc4cc(OC)ccc4c3)NC(=O)CCC(=O)OCC(COC(=O)CCC(=O)NC(COC(=O)C(C)c3ccc4cc(OC)ccc4c3)(COC(=O)C(C)c3ccc4cc(OC)ccc4c3)COC(=O)C(C)c3ccc4cc(OC)ccc4c3)(COC(=O)CCC(=O)NC(COC(=O)C(C)c3ccc4cc(OC)ccc4c3)(COC(=O)C(C)c3ccc4cc(OC)ccc4c3)COC(=O)C(C)c3ccc4cc(OC)ccc4c3)NC(=O)OCc3ccccc3)ccc2c1 (centres undefined) measured with Mus musculus.
Completion: 5.94

Prompt: Provide UI, system Mus musculus, entry COc1ccc2cc(C(C)C(=O)OCCN(CCOC(=O)C(C)c3ccc4cc(OC)ccc4c3)CCC(=O)OCCN(CCOC(=O)CCN(CCOC(=O)C(C)c3ccc4cc(OC)ccc4c3)CCOC(=O)C(C)c3ccc4cc(OC)ccc4c3)CCC(=O)OCCN(CCOC(=O)CCN(CCOC(=O)CCN(CCOC(=O)C(C)c3ccc4cc(OC)ccc4c3)CCOC(=O)C(C)c3ccc4cc(OC)ccc4c3)CCOC(=O)CCN(CCOC(=O)C(C)c3ccc4cc(OC)ccc4c3)CCOC(=O)C(C)c3ccc4cc(OC)ccc4c3)CCC(=O)OCc3ccccc3)ccc2c1 (centres undefined)
Completion: 6.93

Then this molecule:
Prompt: Look up and report measured UI (Mus musculus) for the following molecule: COc1ccc2cc([C@H](C)C(=O)O)ccc2c1 [NAPROXEN]
Completion: 8.26
